The reported numbers originate from ChEMBL document CHEMBL1122669.

Tested on: Mus musculus
Test: Reduction of serum triglycerides in CF1 male mice on day 16 following 20 mg/kg/day i.p. administration.
Format: functional
Conditions: route intraperitoneal
Decision: Serum triglycerides, % of control beneath 70% gives true; Serum triglycerides, % of control meeting or exceeding 70% gives false.

Before answering, review these 2 worked examples.
{"compound": "CCCCCn1[nH]c2ccccc2c1=O", "label": "false"}
{"compound": "O=c1c2ccccc2[nH]n1Cc1ccccc1", "label": "true"}

[Q] Does the reported Serum triglycerides, % of control of CCCCn1[nH]c2ccccc2c1=O stay below 70%?
[A] true

[Q] Does the reported Serum triglycerides, % of control of CCCCn1[nH]c2ccc(C)cc2c1=O stay below 70%?
[A] false

[Q] Does the reported Serum triglycerides, % of control of O=C1NC(=O)c2ccccc21 [PHTHALIMIDE] stay below 70%?
[A] true

[Q] Does the reported Serum triglycerides, % of control of CC(=O)c1ccc(Cn2[nH]c3ccccc3c2=O)cc1 stay below 70%?
[A] true

[Q] Does the reported Serum triglycerides, % of control of CC(=O)CCn1[nH]c2ccccc2c1=O stay below 70%?
[A] true

[Q] Does the reported Serum triglycerides, % of control of CCCn1[nH]c2ccccc2c1=O stay below 70%?
[A] false

[Q] Does the reported Serum triglycerides, % of control of CC(=O)c1ccccc1Cn1[nH]c2ccccc2c1=O stay below 70%?
[A] true

[Q] Does the reported Serum triglycerides, % of control of O=c1c2ccccc2[nH]n1CCO stay below 70%?
[A] true

[Q] Does the reported Serum triglycerides, % of control of Oc1n[nH]c2ccccc12 stay below 70%?
[A] false

[Q] Does the reported Serum triglycerides, % of control of CCOC(=O)n1[nH]c(=O)c2ccccc21 stay below 70%?
[A] true

[Q] Does the reported Serum triglycerides, % of control of CCCCn1[nH]c2ccc(Cl)cc2c1=O stay below 70%?
[A] false

[Q] Does the reported Serum triglycerides, % of control of CC(=O)c1cccc(Cn2[nH]c3ccccc3c2=O)c1 stay below 70%?
[A] true
